measurement-protocol: chemical genetic growth profiling, strain panel (AID 1159580);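 also: tested at 20 µM; growth read once vehicle control cultures reached saturation at 30 °C; 1 = growth at the plate median or of vehicle wells; lower values mean less growth of the strain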
details: S. cerevisiae deletion strains, growth OD, locus YER167W, strain BCK2, stronger effect = lower value
Out of some 5,500 compounds screened, about 2,000 (36%) were called active. Another 18% or so got no clear call; they are omitted. The list shows a part of the results.
parameter: normalized growth
Numbers only.

These recorded examples may help you get a feel for the data.
| compound | parameter | result-number |
| --- | --- | --- |
| CSc1nc(NC(C)C)nc(NC(C)C)n1 | normalized growth | 0.995 |
| CC1Cc2ccccc2N1NC(=O)c1ccc(Cl)c(S(N)(=O)=O)c1 (stereo unspecified) | normalized growth | 1.01 |
| CC(=O)[C@@]1(O)CCC2C3C=C(Cl)C4=CC(=O)[C@@H]5CC5[C@]4(C)C3CC[C@@]21C (stereo partly specified) | normalized growth | 0.988 |
| Cc1ccc(C(C)C)c(O)c1C(=O)O | normalized growth | 0.973 |
| O=C(Oc1ccccc1C(=O)O)c1ccccc1O | normalized growth | 1 |

Proceeding to the next compound to report its normalized growth.
For the compound shown here, COc1nc(NC(C)C)nc(NC(C)C)n1 , give the reported normalized growth.
1.01
